tested.system: Glycogen phosphorylase, liver form (Homo sapiens, UniProt P06737)
Sequence (P06737 whole entry): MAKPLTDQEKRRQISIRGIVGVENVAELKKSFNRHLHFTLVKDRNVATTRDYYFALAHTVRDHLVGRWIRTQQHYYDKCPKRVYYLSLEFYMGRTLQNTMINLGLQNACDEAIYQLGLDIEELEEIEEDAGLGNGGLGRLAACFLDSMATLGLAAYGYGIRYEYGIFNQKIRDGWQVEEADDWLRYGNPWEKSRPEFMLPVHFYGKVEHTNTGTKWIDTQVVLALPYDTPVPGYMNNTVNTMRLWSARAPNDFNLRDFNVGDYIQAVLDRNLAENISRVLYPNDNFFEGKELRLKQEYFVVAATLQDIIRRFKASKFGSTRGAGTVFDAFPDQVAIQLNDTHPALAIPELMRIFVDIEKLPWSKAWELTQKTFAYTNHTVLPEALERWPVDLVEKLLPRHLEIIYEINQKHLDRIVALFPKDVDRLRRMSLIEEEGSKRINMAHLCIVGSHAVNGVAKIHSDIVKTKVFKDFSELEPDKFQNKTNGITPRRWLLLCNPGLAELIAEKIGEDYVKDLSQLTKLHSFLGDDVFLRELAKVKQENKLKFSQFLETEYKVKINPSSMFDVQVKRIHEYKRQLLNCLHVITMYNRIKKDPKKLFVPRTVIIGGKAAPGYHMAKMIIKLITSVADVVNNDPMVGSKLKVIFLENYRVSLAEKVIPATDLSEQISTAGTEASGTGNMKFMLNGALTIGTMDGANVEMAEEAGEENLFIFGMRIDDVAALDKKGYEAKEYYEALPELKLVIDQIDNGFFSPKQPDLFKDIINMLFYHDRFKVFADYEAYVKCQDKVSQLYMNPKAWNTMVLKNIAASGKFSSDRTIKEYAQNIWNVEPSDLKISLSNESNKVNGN
protocol.description: Inhibitory concentration against recombinant human liver glycogen phosphorylase a (HLGPa)
measure.name: pIC50
// returns pIC50 (minus log10 of molar concentration), number only

Q. Which measured pIC50 value corresponds to CN1C(=O)C(NC(=O)c2cc3cc(C(F)(F)F)ccc3[nH]2)Cc2ccccc21 (centres undefined) ?
A. 5.82

Q. Which measured pIC50 value corresponds to CN1C(=O)C(NC(=O)c2cc3ccccc3[nH]2)Cc2ccccc21 (centres undefined) ?
A. 6.80

Q. Which measured pIC50 value corresponds to O=C(NC1CCc2ccccc2NC1=O)c1ccc(Cl)c(Cl)c1 (racemic) ?
A. 5.19

Q. Which measured pIC50 value corresponds to Cc1n[nH]c(CN2C(=O)C(NC(=O)c3cc4cc(Cl)ccc4[nH]3)Cc3ccccc32)n1 (racemic) ?
A. 6.85

Q. Which measured pIC50 value corresponds to `O=C(N[C@H]1Cc2ccccc2N(Cc2ccccn2)C1=O)c1cc2cc(Cl)ccc2[nH]1` ?
A. 6.85

Q. Which measured pIC50 value corresponds to `O=C(N[C@@H]1Cc2ccccc2N(Cc2ccccn2)C1=O)c1cc2cc(Cl)ccc2[nH]1` ?
A. 6.92

Q. Which measured pIC50 value corresponds to CN1C(=O)C(NC(=O)c2cc3cccc(N)c3[nH]2)Cc2ccccc21 (centres undefined) ?
A. 5.92

Q. Which measured pIC50 value corresponds to O=C(NC1Cc2ccccc2NC1=O)c1cc2cc(Cl)ccc2[nH]1 (racemic) ?
A. 7.36

Q. Which measured pIC50 value corresponds to CN1C(=O)C(NC(=O)c2cc3cc(C#N)ccc3[nH]2)Cc2ccccc21 (centres undefined) ?
A. 6.74

Q. Which measured pIC50 value corresponds to O=C(NC1Cc2ccccc2NC1=O)c1ccc(Cl)c(Cl)c1 (centres undefined) ?
A. 5.86

Q. Which measured pIC50 value corresponds to CN1C(=O)C(NC(=O)c2cc3c(Cl)cccc3[nH]2)Cc2ccccc21 (centres undefined) ?
A. 5.80

Q. Which measured pIC50 value corresponds to CN1C(=O)C(NC(=O)c2cc3ccc(Cl)cc3[nH]2)Cc2ccccc21 (centres undefined) ?
A. 7.00

* * *

Give measured IC50 for each item. Keep answers brief.
tested.system: Glycogen phosphorylase, liver form (Homo sapiens, UniProt P06737)
protocol.description: Inhibitory concentration against recombinant human liver glycogen phosphorylase a (HLGPa)
Numbers only here, please. The scale is nM.

Q. Which measured IC50 value corresponds to `O=C(N[C@@H]1Cc2ccccc2NC1=O)c1cc2cc(Cl)ccc2[nH]1` ?
A. 25

Q. Which measured IC50 value corresponds to CN1C(=O)C(NC(=O)c2cc3cc(Cl)ccc3[nH]2)Cc2ccccc21 (racemic) ?
A. 25

Q. Which measured IC50 value corresponds to O=C(NC1Cc2ccccc2N(Cc2ccccn2)C1=O)c1cc2cc(Cl)ccc2[nH]1 (racemic) ?
A. 110

Q. Which measured IC50 value corresponds to CN1C(=O)C(NC(=O)c2cc3cc(Cl)cc(F)c3[nH]2)Cc2ccccc21 (configuration not stated) ?
A. 83

Q. Which measured IC50 value corresponds to `O=C(N[C@H]1Cc2ccccc2NC1=O)c1cc2cc(Cl)ccc2[nH]1` ?
A. 47

Q. Which measured IC50 value corresponds to CN1C(=O)C(NC(=O)c2cc3cc(Br)ccc3[nH]2)Cc2ccccc21 (configuration not stated) ?
A. 30

Q. Which measured IC50 value corresponds to O=C(NC1CCc2ccccc2NC1=O)c1cc2ccccc2[nH]1 (configuration not stated) ?
A. 1060

Q. Which measured IC50 value corresponds to `CN1C(=O)[C@H](NC(=O)c2cc3cc(Cl)ccc3[nH]2)Cc2ccccc21` ?
A. 61

Q. Which measured IC50 value corresponds to O=C(NC1Cc2ccccc2N(Cc2cccnc2)C1=O)c1cc2cc(Cl)ccc2[nH]1 (racemic) ?
A. 130

Q. Which measured IC50 value corresponds to CN1C(=O)C(NC(=O)c2cc3cc(F)ccc3[nH]2)Cc2ccccc21 (configuration not stated) ?
A. 120

Q. Which measured IC50 value corresponds to COC(=O)c1ccc2[nH]c(C(=O)NC3Cc4ccccc4N(C)C3=O)cc2c1 (configuration not stated) ?
A. 5300

Q. Which measured IC50 value corresponds to O=C(NC1Cc2ccccc2N(Cc2nnc(-c3ncc[nH]3)[nH]2)C1=O)c1cc2cc(Cl)ccc2[nH]1 (racemic) ?
A. 160

Q. Which measured IC50 value corresponds to Cc1ccc2[nH]c(C(=O)NC3Cc4ccccc4N(C)C3=O)cc2c1 (configuration not stated) ?
A. 120

Q. Which measured IC50 value corresponds to CN1C(=O)C(NC(=O)c2cc3cc(Cl)ccc3[nH]2)CCc2ccccc21 (configuration not stated) ?
A. 305

Q. Which measured IC50 value corresponds to COc1ccc2[nH]c(C(=O)NC3Cc4ccccc4N(C)C3=O)cc2c1 (configuration not stated) ?
A. 1700

Provenance of the data: ChEMBL document CHEMBL1136486
